Assay: Human PBMC lymphocyte viability by actual cell counts (hemacytometer; Tables 8A, 8B, FIG. 9)
Assay type: cell-based
Conditions: human
READOUT KIND: viability at 120 h, 0.3 µM (%)
The answer is to be given in %; state only the numeric part.

// query Dear colleague, I am looking for the recorded viability at 120 h, 0.3 µM of the following compound: `C=C[C@H](O)C#CC#CC[C@H]1OC(C)(C)O[C@@H]1CCCCCCC`
// result 73.6

====

Assay: Human PBMC lymphocyte viability by actual cell counts (hemacytometer; Tables 8A, 8B, FIG. 9)
Format: cell-based
Settings: human
READOUT KIND: viability at 120 h, 1 µM (%)
The answer is to be given in %; state only the numeric part.

// query Dear colleague, I am looking for the recorded viability at 120 h, 1 µM of the following molecule: C=C[C@H](O)C#CC#CC[C@H]1OC(C)(C)O[C@@H]1CCCCCCC [Compound (D)]
// result 102

====

Experiment: Human PBMC lymphocyte viability by actual cell counts (hemacytometer; Tables 8A, 8B, FIG. 9)
Assay type: cell-based
Conditions: human; 0.3 μM, 72-hrs; read-out: viable cells relative to the starting point (control)
READOUT KIND: viability at 72 h, 0.3 µM (%)
The answer is to be given in %; state only the numeric part.

// query Dear colleague, I am looking for the recorded viability at 72 h, 0.3 µM of the following molecule: `C=C[C@@H](O)C#CC#CC[C@@H](O)[C@H](O)CCCCCCC`
// result 95.8

====

Test: Human PBMC lymphocyte viability by actual cell counts (hemacytometer; Tables 8A, 8B, FIG. 9)
Format: cell-based
Conditions: human; 0.3 μM, 120-hrs; read-out: viable cells relative to the starting point (control)
READOUT KIND: viability at 120 h, 0.3 µM

// query Dear colleague, I am looking for the recorded viability at 120 h, 0.3 µM of the following compound: `C=C[C@@H](O)C#CC#CC[C@@H](O)[C@H](O)CCCCCCC`
// result 105%
